System: MS2 coat protein
Experiment: apparent Kd, MS2 coat protein; higher = weaker binding; RNA-MaP array
Conditions: designed as: ON switch for flavin mononucleotide; no ligand
Readout Type: apparent Kd
Field: value (include unit after the number)

Below, 8 sequences whose answers are already recorded.
Seq String	apparent Kd
AGGUGCAUCAAGAAGGAUGACAUGAGGAUCACCCAUGUACAAAAGGCGCGAUUUACAAAUCGUACAUAGGAUAUUGUGCAUGUU	71.2 nM
GAAACAUUCCCGAGUUUCUACAUGAGGAUCACCCAUGUCCCAUAGGAUAUCUCUACCAGCCGCCGAGAGAAGGAUGUAGUCACU	185 nM
CAACUAAAGGAGAAGGCUAACAUGAGGAUCACCCAUGUCCGCGUGUCCGCUUAUAAUGCGCGCAUAGAGGAUAUCCCAAGUUUA	21.4 nM
ACCAGUAAAUAGCAAUCACAUGAGGAUCACCCAUGUACUGACAAGGAUAUAGUCUAAGAAUAGUGCUAGAAGGUGUUUCCCUAA	168 nM
CGUUGACAUGAGGAUCACCCAUGUUCCCUAGCCACAGGAUAUCGACGCGUGCUCGCUAGACGAGAAGGGUGGUAAA	30.4 nM
UAAAUGUUUUAGAAGGGAUAAUGCGGCAUUGAAUCAGGAUAUAAAGCUAUAAACACAUGAGGAUCACCCAUGUCCCAGGUUAAA	477 nM
CAACAGGAGCAGAAGGUCCAACUCAUAAAUACGGAAGGAUAUGCGUGACCAACUAAAGAAACAUGAGGAUCACCCAUGUAAGCG	10.7 nM
AAGACGGUUCAGAAGGUCUCUAAGCAGGUUACAGAAGGAUAUGAUGCGGACACAUGAGGAUCACCCAUGUUCUAGGGUACCCUA	22.1 nM

response.value for CUGCGCUCGAAGAAGGGCUGCCACAUGAGGAUCACCCAUGUCACUGACACCGAAGUUAGAAAGUAGCAGGAUAUUCAGGGUCCU (field: apparent Kd) = 49.2 nM

====

System: MS2 coat protein
Assay: apparent Kd, MS2 coat protein; higher = weaker binding; RNA-MaP array; tryptophan 2.4 mM where present
Settings: designed as: ON switch for tryptophan; no ligand
Readout Type: apparent Kd

Seq String	Readout Type	Result
CGAGUAAGUUCAAUCGAAUAACGGUUUUCGCGAGGACCGGUACGGCCGCCACUCGUGUGAUAUCACACAUGAGGAUCACCCAUGU	apparent Kd	77.6 nM
AUACAUGAGGAUCACCCAUGUGAUGGCCGGCGAGGACCGGUACGGCCGCCACUCGUGAUCCGUCCUGAAAGCAAAGCUCCCAGCA	apparent Kd	55.2 nM

Now let's try a different one.
response.value for UAGUCCGCGACGGCCGCCACUCGCUGAUGCACAUGUGUCCGGGACAUGAGGAUCACCCAUGUUUCGAGGACCGGGUCGAUCCUAA (field: apparent Kd) = 78.2 nM

====

Known apparent Kd of a selection of sequences
System: MS2 coat protein
Test: apparent Kd, MS2 coat protein; higher = weaker binding; RNA-MaP array; FMN 200 µM where present
Conditions: designed as: ON switch for flavin mononucleotide; no ligand

Below, 5 sequences whose answers are already recorded.
Seq String	Assayed System	apparent Kd
GACUACGAGGGAGGAUAUCCUCAUUAAUUUGGUGGAGAAGGCCCUCUACAUGAGGAUCACCCAUGUAUCGCUAUAGUCAGACAU	MS2 coat protein	9.92 nM
GUAUAUAUGAGGUAGGAUAUCCAAAAUAAAACAUGAGGAUCACCCAUGUAAAUAAAUAAUAAAUGGGAGAAGGACCACAUAUAUAC	MS2 coat protein	30.8 nM
UUUGUAAUGUCAGGAUAUAUUAUAAGUCAGACUGUAGAAGGGAUAAUUAUACUCAUGUACAUGAGGAUCACCCAUGUUAAAUAU	MS2 coat protein	97.1 nM
UGUUACUAGUAAGGAUAUACUUGCAAUUAGCUUGUAGAAGGUACAGUCUUUUGUAUAACAUGUUUACAUGAGGAUCACCCAUGU	MS2 coat protein	10.4 nM
GACUGAUUGUAGAAGGUACUUGACUAUAUAUUUUAUUCAUAUAGACAUGAGGAUCACCCAUGUAGUAAGGAUAUACUUUUAACA	MS2 coat protein	9.31 nM

response.value for GGAGCCGGCACCGAGGAUAUUCAUAUUAAAACAUGAGGAUCACCCAUGUAGCUCGAAAGAGCUUGGGAGAAGGCGGAUCGGCUCG (field: apparent Kd) = 840 nM

response.value for GCAACGCUUGACAUGAGGAUCACCCAUGUUAGAUUGUUAUGUCAGGAUAUAGUCUAGAAACUAGACUAGAAGGGAUAUGUUGCU (field: apparent Kd) = 269 nM
